# tested on: LRRK2 G2019S (Homo sapiens, UniProt Q5S007, G2019S)
# Sequence (Q5S007 whole entry G2019S): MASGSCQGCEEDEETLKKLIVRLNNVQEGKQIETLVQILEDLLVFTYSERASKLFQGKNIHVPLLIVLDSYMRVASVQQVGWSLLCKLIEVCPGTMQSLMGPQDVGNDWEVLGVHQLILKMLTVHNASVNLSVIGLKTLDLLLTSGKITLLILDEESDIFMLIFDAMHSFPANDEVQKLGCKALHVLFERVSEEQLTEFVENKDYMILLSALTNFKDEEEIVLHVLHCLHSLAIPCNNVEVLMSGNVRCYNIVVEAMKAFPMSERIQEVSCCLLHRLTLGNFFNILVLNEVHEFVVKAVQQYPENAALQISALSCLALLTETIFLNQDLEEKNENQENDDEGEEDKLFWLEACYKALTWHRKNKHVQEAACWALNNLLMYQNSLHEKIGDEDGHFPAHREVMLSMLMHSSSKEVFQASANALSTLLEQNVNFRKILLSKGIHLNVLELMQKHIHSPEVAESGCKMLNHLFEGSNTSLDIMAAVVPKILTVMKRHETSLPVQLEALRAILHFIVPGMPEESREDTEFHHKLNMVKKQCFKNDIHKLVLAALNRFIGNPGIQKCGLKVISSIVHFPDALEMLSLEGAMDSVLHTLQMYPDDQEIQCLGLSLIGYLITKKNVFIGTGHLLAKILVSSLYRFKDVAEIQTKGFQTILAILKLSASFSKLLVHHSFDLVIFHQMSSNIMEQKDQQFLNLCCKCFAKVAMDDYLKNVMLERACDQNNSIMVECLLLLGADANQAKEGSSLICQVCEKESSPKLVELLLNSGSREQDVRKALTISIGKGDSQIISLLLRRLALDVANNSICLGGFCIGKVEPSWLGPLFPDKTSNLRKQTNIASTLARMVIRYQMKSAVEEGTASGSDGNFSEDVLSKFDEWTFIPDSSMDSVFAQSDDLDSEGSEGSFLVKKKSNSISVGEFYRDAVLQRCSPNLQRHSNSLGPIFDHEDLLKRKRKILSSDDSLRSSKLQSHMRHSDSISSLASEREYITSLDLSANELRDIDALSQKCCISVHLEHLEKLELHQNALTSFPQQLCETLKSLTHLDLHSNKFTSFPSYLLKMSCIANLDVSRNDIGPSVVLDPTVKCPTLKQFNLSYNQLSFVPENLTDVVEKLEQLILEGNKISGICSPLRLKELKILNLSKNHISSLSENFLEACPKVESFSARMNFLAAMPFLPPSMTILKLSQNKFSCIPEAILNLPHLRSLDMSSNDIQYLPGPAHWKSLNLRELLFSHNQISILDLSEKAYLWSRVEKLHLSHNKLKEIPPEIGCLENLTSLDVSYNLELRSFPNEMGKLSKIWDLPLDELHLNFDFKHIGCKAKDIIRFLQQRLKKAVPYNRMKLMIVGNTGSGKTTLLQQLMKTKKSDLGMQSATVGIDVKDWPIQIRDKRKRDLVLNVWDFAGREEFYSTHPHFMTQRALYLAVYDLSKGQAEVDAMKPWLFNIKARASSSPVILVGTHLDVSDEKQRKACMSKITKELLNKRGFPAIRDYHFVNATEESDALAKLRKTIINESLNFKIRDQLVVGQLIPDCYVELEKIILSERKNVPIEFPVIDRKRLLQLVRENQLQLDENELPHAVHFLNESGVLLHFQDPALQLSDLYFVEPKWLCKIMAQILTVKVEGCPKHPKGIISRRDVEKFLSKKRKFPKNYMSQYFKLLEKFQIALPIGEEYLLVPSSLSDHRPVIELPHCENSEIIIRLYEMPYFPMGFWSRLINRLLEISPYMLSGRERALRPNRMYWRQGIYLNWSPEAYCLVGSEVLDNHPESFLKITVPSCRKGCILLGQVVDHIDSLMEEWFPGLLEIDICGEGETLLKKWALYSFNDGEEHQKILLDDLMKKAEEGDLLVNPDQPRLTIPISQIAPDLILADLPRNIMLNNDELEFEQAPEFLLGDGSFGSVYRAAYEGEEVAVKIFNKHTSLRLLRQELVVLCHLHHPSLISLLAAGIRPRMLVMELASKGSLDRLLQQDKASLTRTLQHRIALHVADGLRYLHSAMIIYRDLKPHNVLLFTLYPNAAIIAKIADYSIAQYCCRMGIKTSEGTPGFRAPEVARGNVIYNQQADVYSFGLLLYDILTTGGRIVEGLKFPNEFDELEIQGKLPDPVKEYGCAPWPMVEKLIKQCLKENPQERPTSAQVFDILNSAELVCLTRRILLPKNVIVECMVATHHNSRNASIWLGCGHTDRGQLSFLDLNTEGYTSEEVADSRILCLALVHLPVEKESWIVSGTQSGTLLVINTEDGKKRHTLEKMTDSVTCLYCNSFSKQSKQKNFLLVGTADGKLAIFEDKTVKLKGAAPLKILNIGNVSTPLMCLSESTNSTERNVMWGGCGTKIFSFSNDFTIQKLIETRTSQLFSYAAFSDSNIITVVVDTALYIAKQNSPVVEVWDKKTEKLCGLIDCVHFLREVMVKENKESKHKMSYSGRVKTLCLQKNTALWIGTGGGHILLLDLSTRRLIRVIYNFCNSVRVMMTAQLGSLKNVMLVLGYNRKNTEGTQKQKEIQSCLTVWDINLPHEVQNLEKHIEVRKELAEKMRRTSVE
# assay remarks: In vitro kinase assay: G2019S LRRK2 autophosphorylation
# Type: biochemical
# condition: Table 2; mean of three experiments
observation type: pIC50
Give bare numbers, as −log10 of the molar value.

Examples with their reported pIC50 follow.
compound=O=C1Nc2ccccc2/C1=C1/Nc2ccccc2/C1=N\O obs_value=6.42
compound=O=C1Nc2ccc(I)cc2/C1=C/c1cc(Br)c(O)c(Br)c1 obs_value=6.66

Could you now look at the following compound, please?
Sample Nc1ncnc2c1c(I)cn2[C@@H]1O[C@H](CO)[C@@H](O)[C@H]1O [Inhibitor 49, 5-iodo-tubercidin, reference compound] — what was its pIC50?
5.37

====

# tested on: LRRK2 WT (Homo sapiens, UniProt Q5S007)
# Sequence (Q5S007 whole entry): as the sequence (Q5S007 whole entry G2019S) above, with S2019G counted along it
# assay remarks: In vitro kinase assay: LRRK2 autophosphorylation
# Format: biochemical
# condition: Table 2; mean of three experiments
Hi there, I'd appreciate the recorded IC50 for every entry that follows.
Hi, when you answer, please include the unit after the number. Thanks!

molecule="O=C1Nc2ccc(I)cc2/C1=C/c1cc(Br)c(O)c(Br)c1 [Inhibitor 56, GW5074]" tested_on="LRRK2 WT (Homo sapiens, UniProt Q5S007)" obs_value="0.88 µM"

Parameters: items (list). Returns: IC50 for each item.
1. CN(C)CCCn1cc(C2=C(c3c[nH]c4ccccc34)C(=O)NC2=O)c2ccccc21 [Inhibitor 31, GP109203X, reference compound]
2. Nc1ncnc2c1c(I)cn2[C@@H]1O[C@H](CO)[C@@H](O)[C@H]1O [Inhibitor 49, 5-iodo-tubercidin, reference compound]

["5.27 µM", "3.21 µM"]
